- Test system: T47D (PI3Kα-H1047R) cell line
- ASSAY_INFO: HTRF phospho-AKT(S473) cell assay in T47D cells
- Format: cell-based, human
- STATED_CONDITIONS: Homo sapiens; HTRF phospho-AKT(S473), T47D (PI3Kα-H1047R) cells, 2 hours compound incubation
pIC50: −log10 of the molar value.
READOUT_TYPE: pIC50

Look over these answered cases.
compound="Cc1cc([C@@H](C)Nc2ccc(Cl)nc2C(=O)NS(C)(=O)=O)c2nc(N3CC[C@@H](Oc4cncnc4)C3)n(C)c(=O)c2c1 [Compound 707]" endpoint_result="6.30 to 6.60"
compound="COc1cnc(C2CCN(c3nc4c([C@@H](C)Nc5ccc(Cl)nc5C(=O)NS(C)(=O)=O)cc(C)cc4c(=O)n3C)CC2)nc1 [Compound 487]" endpoint_result="6.30 to 6.60"

Short answer on T47D (PI3Kα-H1047R) cell line for Cc1cc([C@@H](C)Nc2ccc(Cl)nc2C(=O)NS(C)(=O)=O)c2nc([C@H]3[C@@H]4CN(c5ncc(F)cn5)C[C@@H]43)n(C)c(=O)c2c1 [Compound 827] , pIC50: 6.00 to 6.30

Short answer on T47D (PI3Kα-H1047R) cell line for COc1cnc([C@H]2[C@@H]3CN(c4nc5c([C@@H](C)Nc6ccc(Cl)nc6C(=O)NS(C)(=O)=O)cc(C)cc5c(=O)n4C)C[C@@H]32)cn1 [Compound 641] , pIC50: 6.30 to 6.60

Short answer on T47D (PI3Kα-H1047R) cell line for Cc1cc([C@@H](C)Nc2ccc(Cl)nc2C(=O)NS(C)(=O)=O)c2nc(N3C[C@@H]4[C@H](C3)[C@H]4c3cc(C4CC4)[nH]n3)n(C)c(=O)c2c1 [Compound 524] , pIC50: > 6.60

Short answer on T47D (PI3Kα-H1047R) cell line for Cc1cc([C@@H](C)Nc2ccc(Cl)nc2C(=O)NS(C)(=O)=O)c2nc(N3CCN(c4ccnc(C(F)(F)F)n4)CC3)n(C)c(=O)c2c1 [Compound 589] , pIC50: 6.30 to 6.60

Short answer on T47D (PI3Kα-H1047R) cell line for Cc1cnc(N2C[C@H]3C[C@@H]2CN3c2nc3c([C@@H](C)Nc4ccc(Cl)nc4C(=O)NS(C)(=O)=O)cc(C)cc3c(=O)n2C)nc1 [Compound 565] , pIC50: 6.30 to 6.60

Sourced from patent US12281122B1
